- System: human monoclonal antibody CRJA
- Format: binding
Observation type: Binding of CRJA (10 μg/ml) to looped/cyclic peptide (PEPSCAN-ELISA)

| Residues | Experimental target | Observed value |
| --- | --- | --- |
| RGLYKSLKGACKLKL | human monoclonal antibody CRJA | 113 |
| DGTWVAMQTSNETKW | human monoclonal antibody CRJA | 45 |
| LPSKGCLRVGGRCHP | human monoclonal antibody CRJA | 52 |
| VLGLRLMDGTWVAMQ | human monoclonal antibody CRJA | 108 |
| VEELVRKREECLDAL | human monoclonal antibody CRJA | 69 |
| GLYKSLKGACKLKLC | human monoclonal antibody CRJA | 100 |
| REECLDALESIMTTK | human monoclonal antibody CRJA | 92 |
| HVNGVFFNGIILGPD | human monoclonal antibody CRJA | 105 |
| KWCPPDQLVNLHDFR | human monoclonal antibody CRJA | 102 |
| ALESIMTTKSVSFRR | human monoclonal antibody CRJA | 108 |
| PDGNVLIPEMQSSLL | human monoclonal antibody CRJA | 112 |
| KTLMEADAHYKSVRT | human monoclonal antibody CRJA | 92 |
| ESIMTTKSVSFRRLS | human monoclonal antibody CRJA | 49 |
| KREECLDALESIMTT | human monoclonal antibody CRJA | 100 |
| SLKGACKLKLCGVLG | human monoclonal antibody CRJA | 106 |
| SSVIPLVHPLADPST | human monoclonal antibody CRJA | 45 |
| RTWNEILPSKGCLRV | human monoclonal antibody CRJA | 102 |
| DERGLYKSLKGACKL | human monoclonal antibody CRJA | 85 |

Where do the numbers come from? From patent US20060263802A1.
